- Test system: human colorectal adenocarcinoma HT-29 cells
- method_description: Viability assay (CellTiter-Glo, ATP), HT-29
- Assay type: cell-based
- particulars: 24 h exposure; mean ± S.E.M.; read-out: LC50 HT-29
No end group written: not given here.
quantity_name: CC50

Query: Please tell me the measured CC50 for GIFPIFAKLLGKVIKVASSLISKGRTE [Pseudhymenochirin-2Pa, Pseudhymenochirin-2 Pa] ; system: human colorectal adenocarcinoma HT-29 cells.
Result: 11.5 µM

====

- method_description: Haemolysis assay
- Type: cell-based, human
- particulars: human, pH 7.4; 1 hour at 37° C.; mean ± S.E.M.; read-out: LC50 RBC (50% haemolysis)
No end group written: not given here.
quantity_name: HC50 at 1 hour
In your response, put the unit directly after the numeric value.

Query: Determine its reported HC50 at 1 hour: GIFPIFAKLLGKVIKVASSLISKGRTE [Pseudhymenochirin-2Pa, Pseudhymenochirin-2 Pa]
Result: 6.2 µM

====

- method_description: Haemolysis assay
- Type: cell-based, human
- particulars: human, pH 7.4
No end group written: not given here.
quantity_name: HC50 at 1 hour (µM)
The response must be a number in µM with no trailing unit.

Query: Give me measured HC50 at 1 hour, please, for this sequence: IKIPSFFRNILKKVGKEAVSLIAGALKQS [Pseudhymenochirin-1Pb]
Result: 28

====

- method_description: in vitro
- Format: cell-based
- particulars: human
No end group written: not given here.
quantity_name: CC50 at 24 h (µM)
Supply the numeric figure in µM, leaving out any unit text.

Query: Tell us which CC50 at 24 h value is on record for IKIPSFFRNILKKVGKEAVSLIAGALKQS [Pseudhymenochirin-1Pb]
Result: 5.6

====

- Test system: human breast adenocarcinoma MDA-MB-231 cells
- method_description: Viability assay (CellTiter-Glo, ATP), MDA-MB-231
- Type: cell-based
- particulars: 24 h exposure; mean ± S.E.M.; read-out: LC50 MDA-231
No end group written: not given here.
quantity_name: CC50 (µM)
# number only, unit µM dropped from output

Query: Please look at this sequence and report its CC50: GIFPIFAKLLGKVIKVASSLISKGRTE [Pseudhymenochirin-2Pa, Pseudhymenochirin-2 Pa]
Result: 6.2
